These entries and their values trace back to ChEMBL document CHEMBL3872234.

test: Acute toxicity in CD-1 mouse assessed as viability at 150 mg/kg, ip measured up to 14 days; assay type: organism-based; settings: in vivo, read-out: Activity
survival at 336 h for assorted compounds

>>> observed_measurement("CC(=O)Oc1c(F)c(F)c(F)c(F)c1C(=O)O")
"80%"
>>> observed_measurement("O=C(O)c1cc(F)c(F)cc1O")
"66%"

Name the recorded survival at 336 h of the item COc1c(C(=O)O)cc(F)c(F)c1F in your answer. 80%

====

target: Prostaglandin G/H synthase 1 (Ovis aries); experiment: Inhibition of ovine COX-1 assessed as reduction in PGG2 production using ADHP as substrate at 2 uM incubated for 5 mins followed by substrate addition measured after 2 mins by fluorescence assay
Listed molecules paired with reported inhibition
Just the number please, in %, no unit attached.

Look over these answered cases.
>>> observed_measurement("CC(=O)Oc1ccccc1C(=O)O [ASPIRIN]")
31
>>> observed_measurement("COC(=O)c1c(O)c(F)c(F)c(F)c1F")
47
>>> observed_measurement("CC(=O)Oc1c(C(=O)O)cc(F)c(F)c1F")
35

Next, consider the following molecule.
Look up and report measured inhibition (Prostaglandin G/H synthase 1 (Ovis aries)) for the following molecule: COc1c(F)c(F)c(F)c(F)c1C(=O)O 48

====

As shown below, each of these compounds has a reported survival at 336 h value.
test: Acute toxicity in CD-1 mouse assessed as viability at 300 mg/kg, ip measured up to 14 days; type: organism-based; conditions: in vivo, read-out: Activity
The figure you give is taken to be in %; do not add the unit.

Example entries and their recorded answers appear below.
>>> observed_measurement("COC(=O)c1cc(F)c(F)c(F)c1O")
0
>>> observed_measurement("O=C(O)c1c(O)c(F)c(F)c(F)c1F")
0
>>> observed_measurement("CC(=O)Oc1c(C(=O)O)ccc(F)c1F")
33
>>> observed_measurement("O=C(O)c1ccc(F)c(F)c1O")
33

Let us move to another entry and its survival at 336 h.
Given O=C(O)c1cc(F)c(F)cc1O , respond with its survival at 336 h. 33

====

test system: Rattus norvegicus; experiment: Antiinflammatory activity in rat carrageenan-induced paw edema model assessed as inhibition of paw swelling at 50 mg/kg, ip administered 30 mins prior to carrageenan challenge measured after 5 hrs; type: functional
Recorded inhibition in vivo at 50 mg/kg, one value per entry.
Answer shape: numeric part, then the unit.

// solved cases for inhibition in vivo at 50 mg/kg follow
>>> observed_measurement("O=C(O)c1c(O)c(F)c(F)c(F)c1F")
"56.5%"
>>> observed_measurement("COc1c(C(=O)O)cc(F)c(F)c1F")
"30%"

State its inhibition in vivo at 50 mg/kg for this compound: CC(=O)Oc1c(F)c(F)c(F)c(F)c1C(=O)O 45.1%

Item O=C(O)c1cc(F)c(F)c(F)c1O : provide inhibition in vivo at 50 mg/kg 46.9%

====

assay: Acute toxicity in CD-1 mouse assessed as viability at 75 mg/kg, ip measured up to 14 days; assay type: organism-based; settings: in vivo, read-out: Activity
Quantity measured: survival at 336 h (%)
Give just the number in %; leave the unit off.

Note survival at 336 h for the molecule shown: O=C(O)c1c(O)c(F)c(F)c(F)c1F 66

====

experiment: Acute toxicity in CD-1 mouse assessed as viability at 150 mg/kg, ip measured up to 14 days; type: organism-based; conditions: in vivo, read-out: Activity
Quantity measured: survival at 336 h (%)
The reply should contain only the number, in %.

>>> observed_measurement("O=C([O-])c1cc(F)c(F)c(F)c1O.[Na+]")
66
>>> observed_measurement("O=C(O)c1ccc(F)c(F)c1O")
66
>>> observed_measurement("O=C(O)c1c(O)c(F)cc(F)c1F")
66
>>> observed_measurement("CC(=O)Oc1cc(F)c(F)cc1C(=O)O")
100
>>> observed_measurement("COC(=O)c1c(O)c(F)c(F)c(F)c1F")
90
>>> observed_measurement("COC(=O)c1cc(F)c(F)c(F)c1O")
100

# context switch: different compound, same survival at 336 h
Look up survival at 336 h of CC(=O)Oc1c(C(=O)O)cc(F)c(F)c1F and report it. 70
